Provenance of the data: PubChem BioAssay

# system.tested: Voltage-gated potassium channel subunit beta-2 (Rattus norvegicus)
# assay.details: enhancers of rat Kvbeta2 NADPH turnover – biochemical, NADPH fluorescence, primary screen (AID 623);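 further: fluorescence intensity change per second fitted from 20 to 320 s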
# applied.conditions: Recombinant KvBeta, NADPH fluorescence decrease slope, 10 min; at 10 µM; active compounds read low
Calls of active or inactive are those of the source.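 How the source made its calls: active means NADPH fluorescence slope more negative than the mean of all samples by about 3 SD, 99.7% confidence; inactive means the rest.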
readout: NADPH fluorescence slope

1. COc1ccc(-c2noc(CCC(=O)Nc3nc4ccccc4s3)n2)cc1 | -3.6e-05 (inactive)
2. CCOc1ccccc1NS(=O)(=O)c1c(C)noc1C | 4.7e-05 (inactive)
3. CC(=O)c1c(C)[nH]c(C(=O)Nc2ccc3c(c2)OCCO3)c1C | 6.7e-06 (inactive)
4. COC(=O)c1ccccc1S(=O)(=O)N(CCCO)Cc1cc2c(C)ccc(C)c2[nH]c1=O | 6.1e-06 (inactive)

Entry Cc1cnc(NC(=O)CSc2nnc(-c3ccccc3)n2Cc2ccccc2)s1 : reported NADPH fluorescence slope = ?
5.3e-05 (inactive)

Entry CC(C)CC(=O)N1CCN(S(=O)(=O)c2ccc(F)cc2)CC1 : reported NADPH fluorescence slope = ?
2e-05 (inactive)
